Target: Protein deacetylase HDAC6 (Homo sapiens)
Sequence (Q9UBN7 whole entry): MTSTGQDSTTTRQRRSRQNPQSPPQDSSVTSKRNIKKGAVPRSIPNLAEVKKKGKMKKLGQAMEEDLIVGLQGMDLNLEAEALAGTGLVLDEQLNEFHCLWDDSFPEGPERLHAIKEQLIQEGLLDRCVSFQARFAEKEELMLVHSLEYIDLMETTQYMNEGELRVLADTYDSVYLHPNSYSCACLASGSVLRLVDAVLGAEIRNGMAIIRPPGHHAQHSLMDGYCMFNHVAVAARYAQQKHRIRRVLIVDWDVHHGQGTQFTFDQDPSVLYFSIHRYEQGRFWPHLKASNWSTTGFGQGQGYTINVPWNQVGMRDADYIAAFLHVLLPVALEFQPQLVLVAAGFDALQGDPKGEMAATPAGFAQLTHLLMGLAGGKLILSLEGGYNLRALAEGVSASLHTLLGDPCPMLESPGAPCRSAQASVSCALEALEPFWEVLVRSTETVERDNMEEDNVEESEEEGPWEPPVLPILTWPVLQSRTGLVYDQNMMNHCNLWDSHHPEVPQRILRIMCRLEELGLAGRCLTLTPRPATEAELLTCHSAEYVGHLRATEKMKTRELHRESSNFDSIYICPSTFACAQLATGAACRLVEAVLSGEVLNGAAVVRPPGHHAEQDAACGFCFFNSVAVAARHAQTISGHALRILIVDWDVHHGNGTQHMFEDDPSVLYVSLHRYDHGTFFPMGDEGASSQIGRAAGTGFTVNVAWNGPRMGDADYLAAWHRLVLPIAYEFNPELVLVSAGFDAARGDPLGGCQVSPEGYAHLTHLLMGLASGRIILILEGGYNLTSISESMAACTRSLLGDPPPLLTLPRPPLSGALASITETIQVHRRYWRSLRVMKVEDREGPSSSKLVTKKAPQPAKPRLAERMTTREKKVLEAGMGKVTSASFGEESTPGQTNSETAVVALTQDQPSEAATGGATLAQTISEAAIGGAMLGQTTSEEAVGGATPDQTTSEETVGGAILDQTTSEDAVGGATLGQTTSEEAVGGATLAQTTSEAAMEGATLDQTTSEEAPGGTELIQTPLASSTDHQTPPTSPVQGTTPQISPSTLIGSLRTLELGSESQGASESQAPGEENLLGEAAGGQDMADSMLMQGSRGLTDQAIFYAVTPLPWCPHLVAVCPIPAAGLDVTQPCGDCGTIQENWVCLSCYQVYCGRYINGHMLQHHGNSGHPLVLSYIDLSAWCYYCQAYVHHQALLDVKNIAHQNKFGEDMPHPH
Assay: Inhibition of recombinant human HDAC6 using Boc-Lys(acetyl)-AMC as substrate incubated for 30 mins by fluorescence assay
Observable: IC50 (µM)

Compound | Output unit | Result number
O=C1NC(=O)/C(=C\c2ccc(OCC(=O)N3N=C(c4ccc(F)cc4)CC3c3ccco3)cc2)S1 (stereo not drawn) | µM | 7.6

I = O=C1NC(=O)/C(=C\c2ccc(OCC(=O)N3N=C(c4ccc(F)cc4)CC3c3ccc(Cl)c(Cl)c3)cc2)S1 (stereo not drawn)
II = O=C1NC(=O)/C(=C\c2ccc(OCC(=O)N3N=C(c4ccccc4)CC3c3ccc(Cl)c(Cl)c3)cc2)S1 (stereo not drawn)
Returns the identifier with the smallest measured IC50 among I and II . The response must carry the label of the picked entry.
I
(I: 13 µM, II: 39 µM)

* * *

Target: Histone deacetylase 8 (Homo sapiens) (UniProt Q9BY41)
Sequence (whole entry): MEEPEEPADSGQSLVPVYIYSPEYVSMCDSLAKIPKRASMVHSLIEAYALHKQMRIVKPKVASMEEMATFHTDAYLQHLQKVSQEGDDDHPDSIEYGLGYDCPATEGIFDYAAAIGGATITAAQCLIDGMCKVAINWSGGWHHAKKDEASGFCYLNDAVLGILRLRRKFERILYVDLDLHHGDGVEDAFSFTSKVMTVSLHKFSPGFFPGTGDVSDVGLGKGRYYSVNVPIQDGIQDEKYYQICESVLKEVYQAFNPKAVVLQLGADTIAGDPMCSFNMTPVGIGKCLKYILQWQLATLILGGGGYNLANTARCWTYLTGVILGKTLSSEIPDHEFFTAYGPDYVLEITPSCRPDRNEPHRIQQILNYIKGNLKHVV
Assay: Inhibition of recombinant human N-terminal His6-SUMO-tagged C-terminal SII-tagged HDAC8 expressed in Escherichia coli (BL21) DE3 pLysS cells assessed as residual activity at 50 uM using BocLys(trifluoroacetyl)-AMC as substrate incubated for 30 mins by fluorescence assay relative to control
Observable: Activity (%)

Molecule | Assayed system | Observable | Output unit | Result number
Cc1ccc(C2CC(c3ccc(F)cc3)=NN2C(=O)COc2ccc(/C=C3/SC(=O)NC3=O)cc2)cc1 (stereo not drawn) | Histone deacetylase 8 (Homo sapiens) (UniProt Q9BY41) | Activity | % | 81

a = Cc1ccc(C2CC(c3ccc(F)cc3F)=NN2C(=O)COc2ccc(/C=C3/SC(=O)NC3=O)cc2)cc1 (stereo not drawn)
b = O=C1NC(=O)/C(=C\c2ccc(OCC(=O)N3N=C(c4ccccc4)CC3c3ccc(F)cc3F)cc2)S1 (stereo not drawn)
Lab note: record which item had the higher Activity, a or b . Bench note: the answer is the label of the chosen record.
a
(a: 69%, b: 33%)

* * *

Biological target: Histone deacetylase 8 (Homo sapiens)
Test: Inhibition of recombinant human N-terminal His6-SUMO-tagged C-terminal SII-tagged HDAC8 expressed in Escherichia coli (BL21) DE3 pLysS cells using BocLys(trifluoroacetyl)-AMC as substrate incubated for 30 mins by fluorescence assay
Observable: IC50

Example cases with answers are listed next.
Compound | Assayed system | IC50
O=C1NC(=O)/C(=C\c2ccc(OCC(=O)N3N=C(c4ccc(F)cc4)CC3c3ccccc3)cc2)S1 (centres undefined) | Histone deacetylase 8 (Homo sapiens) | > 50 µM
O=C1NC(=O)/C(=C\c2ccc(OCC(=O)N3N=C(c4ccc(F)cc4)CC3c3ccc(F)cc3F)cc2)S1 (centres undefined) | Histone deacetylase 8 (Homo sapiens) | > 50 µM
Cc1ccc(C2CC(c3ccc(F)cc3F)=NN2C(=O)COc2ccc(/C=C3/SC(=O)NC3=O)cc2)cc1 (centres undefined) | Histone deacetylase 8 (Homo sapiens) | > 50 µM
O=C1NC(=O)/C(=C\c2ccc(OCC(=O)N3N=C(c4ccc(F)cc4)CC3c3ccccc3Cl)cc2)S1 (centres undefined) | Histone deacetylase 8 (Homo sapiens) | > 50 µM
O=C1NC(=O)/C(=C\c2ccc(OCC(=O)N3N=C(c4ccc(F)cc4F)CC3c3ccco3)cc2)S1 (centres undefined) | Histone deacetylase 8 (Homo sapiens) | > 50 µM
Cc1ccc(C2CC(c3ccc(F)cc3)=NN2C(=O)COc2ccc(/C=C3/SC(=O)NC3=O)cc2)cc1 (centres undefined) | Histone deacetylase 8 (Homo sapiens) | > 50 µM

# IC50 of O=C1NC(=O)/C(=C\c2ccc(OCC(=O)N3N=C(c4ccc(F)cc4)CC3c3ccc(C(F)(F)F)cc3)cc2)S1 (centres undefined) = > 50 µM

Memo: O=C1NC(=O)/C(=C\c2ccc(OCC(=O)N3N=C(c4ccccc4)CC3c3ccc(F)cc3F)cc2)S1 (centres undefined) , reported IC50: 34 µM

In plain terms, O=C1NC(=O)/C(=C\c2ccc(OCC(=O)N3N=C(c4ccc(F)cc4)CC3c3ccc(F)cc3)cc2)S1 (centres undefined) has a documented IC50 of > 50 µM

IC50 reported for this compound O=C1NC(=O)/C(=C\c2ccc(OCC(=O)N3N=C(c4ccccc4)CC3c3ccccc3Cl)cc2)S1 (centres undefined) : 29 µM

Notebook: O=C1NC(=O)/C(=C\c2ccc(OCC(=O)N3N=C(c4ccc(F)cc4)CC3c3ccc(Cl)c(Cl)c3)cc2)S1 (centres undefined) , IC50 read as 25 µM

Kindly note the recorded IC50 for O=C1NC(=O)/C(=C\c2ccc(OCC(=O)N3N=C(c4ccc(F)cc4)CC3c3ccco3)cc2)S1 (centres undefined) , which is > 50 µM

For O=C1NC(=O)/C(=C\c2ccc(OCC(=O)N3N=C(c4ccccc4)CC3c3ccc(C(F)(F)F)cc3)cc2)S1 (centres undefined) the compound record lists IC50 as 16 µM

Given item O=C1NC(=O)/C(=C\c2ccc(OCC(=O)N3N=C(c4ccc(F)cc4F)CC3c3ccc(F)cc3)cc2)S1 (centres undefined) , the value recorded as its IC50 is > 50 µM
